# ASSAY_NOTES: Plasma pharmacokinetics of FdCyd, metabolites and THU in cynomolgus monkeys
# MEASUREMENT_SETUP: both, cynomolgus monkey, plasma, po, 10 mg/kg, Tmax, analyte FdCyd; FdCyd 10 mg/kg PO 1 h after THU 500 mg/kg PO; N=4; mean (±SD)
OBSERVABLE: Tmax
Number plus unit, in that order.

Look at this molecule and give its reported Tmax. Nc1nc(=O)n([C@H]2C[C@H](O)[C@@H](CO)O2)cc1F
1.38 h

* * *

# ASSAY_NOTES: Plasma pharmacokinetics of FdCyd, metabolites and THU in cynomolgus monkeys
# MEASUREMENT_SETUP: both, cynomolgus monkey, plasma, po, 0.1 mg/kg, Tmax for FdCyd (mean), monkeys; FdCyd 0.1 mg/kg PO 1 h after 500 mg/kg THU PO
OBSERVABLE: Tmax (min)
Please respond with the number in min and leave the unit unwritten.

Fill in: Tmax of Nc1nc(=O)n([C@H]2C[C@H](O)[C@@H](CO)O2)cc1F [FdCyd, 5-fluoro-2’-deoxycytidine] is ___
15

* * *

# ASSAY_NOTES: Plasma pharmacokinetics of FdCyd, metabolites and THU in cynomolgus monkeys
# MEASUREMENT_SETUP: both, cynomolgus monkey, plasma, po, 10 mg/kg, T½, analyte FdCyd; FdCyd 10 mg/kg PO 1 h after THU 500 mg/kg PO; N=4; mean (±SD)
OBSERVABLE: half-life (min)
The reply should be a number in min, with the unit left off.

Query (molecule): Nc1nc(=O)n([C@H]2C[C@H](O)[C@@H](CO)O2)cc1F ; field requested: half-life
37.8

* * *

# ASSAY_NOTES: Plasma pharmacokinetics of FdCyd, metabolites and THU in cynomolgus monkeys
# MEASUREMENT_SETUP: both, cynomolgus monkey, plasma, po, 10 mg/kg, Cl/F, analyte FdCyd; FdCyd 10 mg/kg PO 1 h after THU 500 mg/kg PO; N=4; mean (±SD)
OBSERVABLE: CL/F (mL/min/kg)
Field format: number, assumed mL/min/kg, no unit text.

Which CL/F is listed for Nc1nc(=O)n([C@H]2C[C@H](O)[C@@H](CO)O2)cc1F ?
53

* * *

# ASSAY_NOTES: Plasma pharmacokinetics of FdCyd, metabolites and THU in cynomolgus monkeys
# MEASUREMENT_SETUP: both, cynomolgus monkey, plasma, po, 10 mg/kg, AUC0-t, analyte FdCyd; FdCyd 10 mg/kg PO 1 h after THU 500 mg/kg PO; N=4; mean (±SD)
OBSERVABLE: AUC(0-t) (ng·h/mL)
Respond numerically; units are ng·h/mL and should not be typed.

AUC(0-t) lookup needed for Nc1nc(=O)n([C@H]2C[C@H](O)[C@@H](CO)O2)cc1F , thanks.
5280

* * *

# ASSAY_NOTES: Plasma pharmacokinetics of FdCyd, metabolites and THU in cynomolgus monkeys
# MEASUREMENT_SETUP: both, cynomolgus monkey, plasma, iv, Cmax, analyte FdCyd; FdCyd 8 mg/kg 3 h IV infusion with THU 30 mg/kg IV; N=2; mean (±SD)
OBSERVABLE: Cmax (ng/mL)
Dear colleague, please return just the value in ng/mL, with no unit written.

Could you share which Cmax value was measured for Nc1nc(=O)n([C@H]2C[C@H](O)[C@@H](CO)O2)cc1F ?
5690

Reference source for all entries: paper PMC4573928
